- Assay Method Text: Quantitative High-Throughput drug screen in 47 multiple myeloma cell lines against the NCATS MIPE library collection: KMS28PE_JCRB cell viability assay (AID 1918983); also: nearly all actives have a fitted effect of over 35% in size
- Assay Context: KMS28PE multiple myeloma viability, CellTiter-Glo ATP, 48 h; series mostly up to 45.8 µM
- Description: PI: Beverly A. Mock Ph.D. Laboratory of Cancer Biology and Genetics, Center for Cancer Research, National Cancer Institute, National Institute of Health, Bethesda, Maryland […] 5; Detector; 425V; Luminescence; Viewlux PerkinElmer. […] 1. […] Briefly, the corresponding myeloma cell lines were screened in 1,536-well plates with 500 cells, 5-uL per well for inhibition of cell viability (assessed by measuring ATP levels with CellTiterGlo). […]
Records with an inconclusive call do not appear. The source made the active and inactive calls. Calls follow the shape of the dose curve; as a rule, active = well fitted cell-killing curve with a large enough effect; inconclusive = small, poorly fitted or top-dose-only effect, or effect the other way; inactive = no such curve, though single readings can be large or run the other way.
The categories you may choose from are active, inactive

Take a look at these entries with their results.
Compound: O=C(CCCCCCNC(=O)c1cnc(N(c2ccccc2)c2ccccc2)nc1)NO
Label: active

Compound: CCn1cc(-c2ccnc3[nH]c(-c4cccc(CN(C)C)c4)cc23)c(-c2ccc(NC(=O)N(C)C)cc2)n1
Label: active

Compound: Nc1ccccc1NC(=O)c1ccc(CNC(=O)OCc2cccnc2)cc1
Label: active

Compound: CS(=O)(=O)c1ccc(-c2cnc(N)c(C(=O)Nc3ccccc3)n2)cc1
Label: inactive

Compound: CC(C)c1ccccc1Cc1cc(C(=O)Nc2ccc(S(=O)(=O)c3ccccc3C(C)(C)C)cc2)c(O)c(O)c1O
Label: active

Compound: C=CC(=O)Nc1cccc(Oc2nc(Nc3ccc(N4CCN(C)CC4)cc3)ncc2Cl)c1
Label: active

Query block: What outcome does the record of this test show for `CCc1c2c(nc3ccc(O)cc13)-c1cc3c(c(=O)n1C2)COC(=O)[C@]3(O)CC` ?
Result block: active

----------
- Target Of Assay: Glutathione peroxidase 1 (Homo sapiens)
- Assay Method Text: Primary qHTS Assay for Inhibitors of Recombinant Selenoprotein Glutathione Peroxidase 1 (GPX1) (AID 1845191); also: nearly all actives have a fitted effect of over 65% in size
- Assay Context: recombinant GPX1, GR-coupled NADPH fluorescence, 15 min; series mostly up to 48.8 µM
Records with an inconclusive call do not appear. Calls of active or inactive are those of the source. Calls come from the whole dose curve; as a rule, active = well fitted inhibition curve with a large enough effect; inconclusive = small, poorly fitted or top-dose-only effect; inactive = flat fitted curve, though single readings scatter.
Property Measured: outcome

Compound: CC(C)c1ccccc1Cc1cc(C(=O)Nc2ccc(S(=O)(=O)c3ccccc3C(C)(C)C)cc2)c(O)c(O)c1O
Target Of Assay: Glutathione peroxidase 1 (Homo sapiens)
Test Value: inactive
//
Compound: COc1ccc2c(OCc3nnc4ccc(-c5ccccc5)nn34)ccnc2c1
Target Of Assay: Glutathione peroxidase 1 (Homo sapiens)
Test Value: inactive
//
Compound: Nc1ccn([C@@H]2CS[C@H](CO)O2)c(=O)n1
Target Of Assay: Glutathione peroxidase 1 (Homo sapiens)
Test Value: inactive
//
Compound: Cn1cc(-c2[nH]c3cc(NC(=O)[C@H](N)C4CCCCC4)cc4c3c2C=NNC4=O)cn1
Target Of Assay: Glutathione peroxidase 1 (Homo sapiens)
Test Value: inactive
//
Compound: Cc1cc(C(=O)N2CCN(c3cccc(Cl)c3)CC2)n(-c2ccccc2)n1
Target Of Assay: Glutathione peroxidase 1 (Homo sapiens)
Test Value: inactive

Query block: Give its outcome value. Item: `CN1CCN(c2cc(C(=O)Nc3ccc4c(c3)-c3c(c(C(N)=O)nn3-c3ccc(F)cc3)CC4)c(Cl)cn2)CC1`
Result block: inactive

Query block: Requested field: outcome. Item: `COc1cc(C(=O)N2CCC(N3CCN(C)CC3)CC2)ccc1Nc1ncc2c(n1)N(C)c1ccccc1C(=O)N2C`
Result block: inactive

Query block: Which outcome reading was recorded for the compound `COC(=O)C[C@](O)(CCCC(C)(C)O)C(=O)O[C@@H]1C(OC)=C[C@]23CCCN2CCc2cc4c(cc2[C@H]13)OCO4` ?
Result block: inactive

Query block: // query outcome value for entry `CCS(=O)(=O)c1cccc(-c2cc(C(=O)NC3CCN(C)CC3)c(C)c3[nH]c4ncc(C)cc4c23)c1`
Result block: inactive

Query block: Record request: outcome value, item `Cn1c(=O)n(-c2ccc(C(C)(C)C#N)cc2)c2c3cc(-c4cnc5ccccc5c4)ccc3ncc21`
Result block: inactive

Query block: What does the record list as outcome for CN(C1CCc2c(c3ccccc3n2CC(=O)O)C1)S(=O)(=O)c1ccc(F)cc1 (stereo not drawn) ?
Result block: inactive

Query block: // outcome lookup, key: COc1cc(-c2nn(C3CCC(N4CCN(C(C)=O)CC4)CC3)c3ncnc(N)c23)ccc1NC(=O)c1cc2ccccc2n1C (stereo not drawn)
Result block: inactive

----------
- Test system: HEK293
- Assay Method Text: Cytotoxic Profiling of Annotated Libraries Using Quantitative High-Throughput Screening (AID 1296008); also: % is scaled to controls: 0 for no effect and ±100 for the full control effect; nearly all actives have a fitted effect of over 60% in size
- Assay Context: Five cell lines viability, CellTiter-Glo ATP luminescence, 48-72 h; hits give low values
- Method: Cell-based phenotypic screening is a commonly used approach to discover biological pathways, novel drug targets, chemical probes and high-quality hit-to-lead molecules. […] A pintool (Kalypsys) was used to transfer 23 nL of compound solution to the 1536-well assay plates. […] Plates were left at room temperature for 10 min before imaging the ATP-coupled luminescence using a ViewLux microplate imager (PerkinElmer, Waltham, MA).
Results filed as inconclusive are left out.
Property Measured: max response (%)
Numeric answer only, unit % assumed.

Molecule: Cc1ccc(CN2CCNCC2)cc1NC(=O)CNc1ccc(F)c(F)c1
Units Symbol: %
max response: -5.99

Molecule: CC(=O)OCCN1C(=O)c2c(C)nc3ccc(S(=O)(=O)N4CCOCC4)cc3c2C1=O
Units Symbol: %
max response: -2.2

Molecule: CCCCCCCCCC(=O)N[C@@H](Cc1c[nH]c2ccccc12)C(=O)N[C@H](CC(N)=O)C(=O)N[C@@H](CC(=O)O)C(=O)N[C@@H]1C(=O)NCC(=O)N[C@@H](CCCN)C(=O)N[C@@H](CC(=O)O)C(=O)N[C@H](C)C(=O)N[C@@H](CC(=O)O)C(=O)NCC(=O)N[C@H](CO)C(=O)N[C@@H]([C@@H](C)CC(=O)O)C(=O)N[C@@H](CC(=O)c2ccccc2N)C(=O)O[C@@H]1C
Units Symbol: %
max response: 3.78

Query block: For the molecule shown here, `COc1cc(C(C)C)c2c(c1)S(=O)(=O)N(COc1cc(=O)n3cccc(OCCN4CCCCC4)c3n1)C2=O` , give the reported max response.
Result block: -21.7

Query block: Bench note: what max response did CCOc1ccccc1OCCNC(C)Cc1ccc(OC)c(S(N)(=O)=O)c1 (stereo not drawn) show?
Result block: -25.2

Query block: What does the data say about its max response? Entry: `CC=CC1=C(C(=O)O)N2C(=O)[C@H](NC(=O)[C@H](N)c3ccc(O)cc3)[C@@H]2SC1`
Result block: -2.68

Query block: Record request: max response value, item `CC(=O)c1c(C)c2cnc(Nc3ccc(N4CCNCC4)cn3)nc2n(C2CCCC2)c1=O`
Result block: -2.77

----------
- Assay Method Text: qHTS Screen of the MIPE 4.0 Collection Against Ewings Sarcoma (EW8) (AID 1259255); also: nearly all actives have a fitted effect of over 35% in size;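 as to viability: 100% = DMSO-treated cells and 0% = medium-only wells without cells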
- Assay Context: EW8 Ewing sarcoma viability, CellTiter-Glo, 48 h; series mostly up to 45.8 µM
Inconclusive results are not listed. Active and inactive are the calls of the source. The call rests on the fitted dose curve; in most records, active means well fitted inhibition curve with a large enough effect; inconclusive means small, poorly fitted or top-dose-only effect; inactive means no such curve, though single readings can be large or run the other way.
Lab note: assign the record to one of active, inactive

Recorded results for 5 compounds are shown here.
Compound: Clc1cccc(-n2nnnc2NCc2ccccc2Oc2ccccn2)c1Cl
Label: inactive
--
Compound: CC(C)(C)c1cc(NC(=O)Nc2ccc(-c3cn4c(n3)sc3cc(OCCN5CCOCC5)ccc34)cc2)no1
Label: inactive
--
Compound: Cc1c(Cn2c(C)nc3c(C(=O)O)cc(N4CCOCC4)cc32)cccc1C(F)(F)F
Label: active
--
Compound: C[C@@H]1COC(Nc2ccc3ncnc(Nc4ccc(OCc5nccs5)c(Cl)c4)c3c2)=N1
Label: active
--
Compound: CC[C@@H]1C(=O)N(C)c2cnc(Nc3ccc(C(=O)NC4CCC(N5CCN(CC6CC6)CC5)CC4)cc3OC)nc2N1C(C)C (stereo partly specified)
Label: active

Query block: Each compound tested received a call. Report the one for `C=CC(=O)N1CCC[C@@H](n2nc(-c3ccc(Oc4ccccc4)cc3)c3c(N)ncnc32)C1` .
Result block: active

Query block: Dear all, I need the recorded test outcome for `CNC(=O)CN1CCC(Oc2cc3c(Nc4cccc(Cl)c4F)ncnc3cc2OC)CC1` , thank you.
Result block: active

Query block: What did this assay record as the result for `O=C(Nc1cn[nH]c1-c1nc2ccc(CN3CCOCC3)cc2[nH]1)NC1CC1` ?
Result block: active

Query block: # lookup: test call for `CC(C)(C)c1cc(C(C)(C)C)c(NC(=O)c2c[nH]c3ccccc3c2=O)cc1O`
Result block: inactive

----------
- Assay Method Text: HepG2 cells viability qHTS for Zika virus inhibitors (AID 1347168)
- Assay Context: Zika counter-screen; series mostly up to 45.9 µM
Records with an inconclusive call do not appear. Activity calls are given as the source filed them. The call rests on the fitted dose curve; in most records, active means well fitted cell-killing curve with a large enough effect; inconclusive means small, poorly fitted or top-dose-only effect; inactive means flat fitted curve, though single readings scatter.
Respond using exactly one of the listed classes: active, inactive

Mol Smiles: CCN1CCN(Cc2ccc(-c3cc4c(N[C@H](C)c5ccccc5)ncnc4[nH]3)cc2)CC1
Label: active

Query block: In this assay, the call recorded for `CN1CCC(CNc2ccc3ncc(-c4cccc(OC(F)(F)F)c4)n3n2)CC1` was what?
Result block: active

Query block: Hi team, can someone confirm the assay call for `CC(C)c1ccccc1Cc1cc(C(=O)Nc2ccc(S(=O)(=O)c3ccccc3C(C)(C)C)cc2)c(O)c(O)c1O` ?
Result block: inactive

Query block: Outcome? `COc1cc(C(=O)NS(=O)(=O)c2ccccc2C)ccc1Cc1cn(C)c2ccc(NC(=O)OC3CCCC3)cc12`
Result block: inactive

Query block: Hello, I am checking results. What call was entered for `CCS(=O)(=O)c1cccc(-c2cc(C(=O)NC3CCN(C)CC3)c(C)c3[nH]c4ncc(C)cc4c23)c1` ?
Result block: active

Query block: Which result was noted for this compound in the test: `Cc1c(C)n(Cc2ccc(-c3ccccc3C(=O)O)cc2)c2ccc(C(=O)N[C@@H](C)c3ccc([N+](=O)[O-])cc3)cc12`
Result block: inactive
